test system: Plasmodium falciparum; assay: Antimalarial activity against chloroquine-resistant Plasmodium falciparum T996 infected in human erythrocytes assessed as inhibition of [G-3H]hypoxanthine uptake preincubated for 24 hrs followed by [G-3H]hypoxanthine addition and measured after 18 to 24 hrs by scintillation spectrometry; format: functional, organism-based; details: T996, Erythrocyte
pIC50: −log10 of the molar value.
reported_property: pIC50

[[record]]
molecule = "CCN(CCO)CCCC(C)Nc1ccnc2cc(Cl)ccc12 (stereo unspecified) [HYDROXYCHLOROQUINE]"
reported_property = "pIC50"
obs_value = 7.67

